# protocolDetails: Clearance in rat at 1 mg/kg, po
# Assay type: ADME, organism-based
# Set-up: dose 1 mg/kg, route oral
# protocolConditions: in vivo
property: CL/F (mL/min/kg)

1. CCCn1c(=O)c2nc(C34CCC(CCC(=O)O)(CC3)CC4)[nH]c2n(CCC)c1=O.Cl    1.6
2. CCCN1C(=O)N2C[C@@H](C(C)C)N=C2c2[nH]c(C34CCC(O)(CC3)CC4)nc21.Cl    21
3. CCCN1C(=O)N2C[C@@H](CC)N=C2c2[nH]c(C34CCC(O)(CC3)CC4)nc21.Cl    18

###

# Test system: Rattus norvegicus
# protocolDetails: Volume of distribution in rat at 1 mg/kg, po
# Assay type: ADME, organism-based
# Parameters: dose 1 mg/kg, route oral
# protocolConditions: in vivo
Catalogue of Vdss values
property: Vdss (L/kg)

1) CCCN1C(=O)N2C[C@@H](CC)N=C2c2[nH]c(C34CCC(O)(CC3)CC4)nc21.Cl    4.1
2) CCCN1C(=O)N2C[C@@H](C(C)C)N=C2c2[nH]c(C34CCC(O)(CC3)CC4)nc21.Cl    1.7
3) CCCN1C(=O)N2C[C@@H](C(C)C)N=C2c2[nH]c(C34CCC(CCC(=O)O)(CC3)CC4)nc21.Cl    0.9
4) CCCn1c(=O)c2nc(C34CCC(CCC(=O)O)(CC3)CC4)[nH]c2n(CCC)c1=O.Cl    0.3
